ASSAYED_TARGET: SIK1 (Homo sapiens, UniProt P57059)
Construct: purchased Carna Biosciences 02-131
Sequence (P57059 whole entry): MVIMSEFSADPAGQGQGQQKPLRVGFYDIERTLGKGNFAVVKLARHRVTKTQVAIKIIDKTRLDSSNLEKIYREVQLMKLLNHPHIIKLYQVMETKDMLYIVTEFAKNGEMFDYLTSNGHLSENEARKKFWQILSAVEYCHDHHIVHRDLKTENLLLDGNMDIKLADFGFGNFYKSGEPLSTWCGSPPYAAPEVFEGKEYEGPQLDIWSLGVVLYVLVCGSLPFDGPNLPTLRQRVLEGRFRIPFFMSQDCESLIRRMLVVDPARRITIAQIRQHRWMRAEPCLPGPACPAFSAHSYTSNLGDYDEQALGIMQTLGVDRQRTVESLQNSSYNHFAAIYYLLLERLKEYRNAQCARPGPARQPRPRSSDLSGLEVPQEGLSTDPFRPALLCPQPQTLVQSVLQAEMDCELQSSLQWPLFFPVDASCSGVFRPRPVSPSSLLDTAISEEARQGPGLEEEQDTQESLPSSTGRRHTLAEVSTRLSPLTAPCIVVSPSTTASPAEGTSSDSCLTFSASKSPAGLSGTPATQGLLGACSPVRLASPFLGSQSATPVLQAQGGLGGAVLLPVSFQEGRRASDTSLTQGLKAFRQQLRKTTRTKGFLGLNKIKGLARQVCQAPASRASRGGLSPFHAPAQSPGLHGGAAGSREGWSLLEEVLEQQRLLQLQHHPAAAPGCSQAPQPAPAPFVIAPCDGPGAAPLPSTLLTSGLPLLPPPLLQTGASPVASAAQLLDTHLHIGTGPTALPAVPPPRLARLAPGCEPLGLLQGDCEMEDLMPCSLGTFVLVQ
ASSAY_DETAILS: biochemical
SETTINGS: 33P radioactive SIK kinase assay, AMARA peptide, 10 μM ATP; read-out: SIK1 IC50
Listed next: entries and their corresponding IC50.

Observe how each entry below is paired with its result.
{"columns": ["COMPOUND", "IC50"],
 "data": [
  ["COc1cc(-n2cnc3cc(-c4cnn(CC5CCCO5)c4)ccc32)cc(OC)c1C(=O)NCC(F)(F)F (stereo not shown)", "0.01 to 10 nM"],
  ["COc1cc(-n2cnc3cc(-c4cnn(CC(C)C)c4)ccc32)cc(OC)c1C(=O)NCC(F)(F)F", "10 to 100 nM"],
  ["COc1cc(-n2cnc3cc(-c4cnn(C)c4)ccc32)cc(OC)c1C(=O)N1CC(C#N)C1", "10 to 100 nM"]
]}

Next:
[in] State, in one line, measured IC50 of CCNC(=O)c1c(OC)cc(-n2cnc3cc(-c4cnn(C)c4)cnc32)cc1OC(F)F
[out] 10 to 100 nM

* * *

System: LPS-induced TNFα secretion in monocyte-derived macrophages (MdM)
ASSAY_DETAILS: MdM assay: LPS-triggered TNFα (ELISA)
Format: cell-based, human
SETTINGS: Homo sapiens, Macrophage, LPS-triggered TNFα inhibition
Listed next: entries and their corresponding EC50.

Observe how each entry below is paired with its result.
{"columns": ["MOLECULE", "READOUT_NAME", "RESULT"],
 "data": [
  ["COc1cc(-c2cnc3cc(-c4cnn(CC(=O)OC5CC5)c4)ccn23)cc(OC)c1C(=O)NCC(F)(F)F [compound 234]", "EC50", "0.1 to 100 nM"],
  ["COc1cc(-n2cnc3cc(-c4cnn(C5CNC5)c4)ccc32)cc(OC)c1C(=O)NCC(F)(F)F [Cpd 94]", "EC50", "100 to 1000 nM"],
  ["COC(=O)Cn1cc(-c2ccn3c(-c4cc(OC)c(C(=O)NCC(F)(F)F)c(OC)c4)cnc3c2)cn1 [Cpd 236]", "EC50", "0.1 to 100 nM"],
  ["COc1cc(-c2cnc3cc(-c4cnn(C)c4)c(OCC(=O)O)cn23)cc(OC(F)F)c1C(=O)NC1CC1 [Cpd 299]", "EC50", "> 5000 nM"],
  ["CCCNC(=O)c1c(OC)cc(-n2cnc3cc(-c4cnn(CC)c4)ccc32)cc1OC [compound 22]", "EC50", "100 to 1000 nM"],
  ["COc1ccc(-c2ccn3c(-c4cc(OC)c(C(=O)NC5CC5)c(OC(F)F)c4)cnc3c2)nn1 [compound 280]", "EC50", "0.1 to 100 nM"]
]}

Next:
[in] Check LPS-induced TNFα secretion in monocyte-derived macrophages (MdM) data and give EC50 for COc1cc(-c2cnc3cc(-c4cnnc(C)c4)ccn23)cc(OC(F)F)c1C(=O)NC1CC1 [compound 272] .
[out] 100 to 1000 nM

* * *

ASSAYED_TARGET: SIK3 (Homo sapiens, UniProt Q9Y2K2)
Construct: purchased SignalChem S12-11G-100
Sequence (Q9Y2K2 whole entry): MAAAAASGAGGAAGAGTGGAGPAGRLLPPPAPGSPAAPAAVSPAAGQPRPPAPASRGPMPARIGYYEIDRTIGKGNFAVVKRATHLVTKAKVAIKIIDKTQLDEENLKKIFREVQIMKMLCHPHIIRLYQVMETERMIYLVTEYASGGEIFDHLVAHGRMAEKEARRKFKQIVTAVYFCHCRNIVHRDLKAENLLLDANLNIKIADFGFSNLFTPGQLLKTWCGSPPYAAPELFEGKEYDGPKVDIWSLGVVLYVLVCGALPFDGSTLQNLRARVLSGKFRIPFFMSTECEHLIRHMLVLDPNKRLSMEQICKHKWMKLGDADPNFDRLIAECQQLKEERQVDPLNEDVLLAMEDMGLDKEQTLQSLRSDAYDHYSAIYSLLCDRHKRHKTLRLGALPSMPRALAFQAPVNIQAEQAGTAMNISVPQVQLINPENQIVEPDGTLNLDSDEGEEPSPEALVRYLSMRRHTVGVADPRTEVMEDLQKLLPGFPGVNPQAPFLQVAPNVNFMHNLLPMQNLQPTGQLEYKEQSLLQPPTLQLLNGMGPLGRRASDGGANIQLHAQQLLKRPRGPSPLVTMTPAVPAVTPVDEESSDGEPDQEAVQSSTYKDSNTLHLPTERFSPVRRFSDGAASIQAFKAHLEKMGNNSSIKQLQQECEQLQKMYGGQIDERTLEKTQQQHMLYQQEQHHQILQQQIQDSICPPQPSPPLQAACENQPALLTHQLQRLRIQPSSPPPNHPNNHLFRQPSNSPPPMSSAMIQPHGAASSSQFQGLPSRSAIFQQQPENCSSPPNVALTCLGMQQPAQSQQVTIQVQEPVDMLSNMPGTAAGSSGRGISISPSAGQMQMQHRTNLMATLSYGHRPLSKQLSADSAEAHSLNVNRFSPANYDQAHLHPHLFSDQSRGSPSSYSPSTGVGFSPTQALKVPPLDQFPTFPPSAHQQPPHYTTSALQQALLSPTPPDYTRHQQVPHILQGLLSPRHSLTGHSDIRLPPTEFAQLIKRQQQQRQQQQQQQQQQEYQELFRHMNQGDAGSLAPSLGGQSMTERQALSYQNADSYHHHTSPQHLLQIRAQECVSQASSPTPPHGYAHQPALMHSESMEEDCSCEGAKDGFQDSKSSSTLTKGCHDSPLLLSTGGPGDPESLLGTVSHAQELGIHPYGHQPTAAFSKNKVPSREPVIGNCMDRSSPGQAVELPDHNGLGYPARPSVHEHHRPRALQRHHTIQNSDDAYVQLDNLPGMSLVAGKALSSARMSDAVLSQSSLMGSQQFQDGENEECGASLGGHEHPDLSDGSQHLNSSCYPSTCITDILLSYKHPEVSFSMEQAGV
ASSAY_DETAILS: biochemical
pIC50: −log10 of the molar value.
READOUT_NAME: pIC50

{"columns": ["COMPOUND", "ASSAYED_TARGET", "pIC50"],
 "data": [
  ["COc1cc(-c2cnc3cc(-c4cnc(N)nc4)ccn23)cc(OC)c1C(=O)NCC(F)(F)F", "SIK3 (Homo sapiens, UniProt Q9Y2K2)", "8.00 to 11.00"],
  ["CCCn1cc(-c2ccc3c(c2)ncn3-c2cc(OC)c(C(=O)NCC(F)(F)F)c(OC)c2)cn1", "SIK3 (Homo sapiens, UniProt Q9Y2K2)", "8.00 to 11.00"],
  ["CCn1cc(-c2ccc3c(c2)ncn3-c2cc(OC)c(C(=O)N(C)CCOC)c(OC)c2)cn1", "SIK3 (Homo sapiens, UniProt Q9Y2K2)", "< 6.30"],
  ["COC(=O)CCCn1cc(-c2ccn3c(-c4cc(OC)c(C(=O)NCC(F)(F)F)c(OC)c4)cnc3c2)cn1", "SIK3 (Homo sapiens, UniProt Q9Y2K2)", "8.00 to 11.00"]
]}

[in] State, in one line, measured pIC50 of COc1cc(-c2cnc3cc(-c4ccc(N5CCOCC5)nc4)ccn23)cc(OC)c1C(=O)NCC(F)(F)F
[out] 8.00 to 11.00
